# Read-out: Monocyte Chemoattractant Protein-1 (MCP1), CCL2 (gene 6347)
# measurement-description: BSK_3C_MCP1: BioMAP Diversity Plus: 3C Assay for Monocyte Chemoattractant Protein-1 (MCP1) Biomarker Activity (AID 2283017)
# study-conditions: primary human endothelial cells (HUVEC); actives raise or lower the signal
Active and inactive are the calls of the source. Rule for the calls: active = hit-call score of the fitted dose curve at least 0.9, where 1 is the maximum; inactive = score below 0.9.
Give one outcome, nothing more. List: true for active, false for inactive

The following compounds have reported results that may help.
compound: O=C(O)C(F)(F)OC(F)(F)C(F)(F)OC(F)(F)C(F)(F)C(F)(F)C(F)(F)F
group: false

compound: O=S(=O)(O)C(F)(F)C(F)(F)OC(F)(F)C(F)(F)F
group: false

compound: CCCCCCCCCCCCS
group: true

compound: CCn1cc(C(=O)O)c(=O)c2ccc(C)nc21
group: false

compound: CCCCOCCOCCO
group: false

compound: C=C(C)C(=O)OCCC(F)(F)C(F)(F)C(F)(F)C(F)(F)C(F)(F)C(F)(F)C(F)(F)C(F)(F)F
group: false

Which outcome did this test record for the compound C=C(C)C(N)=O ?
false

Which outcome did this test record for the compound CC(C)Cc1ccc(C(C)C(=O)O)cc1 (centres undefined) ?
false

Which outcome did this test record for the compound COC(=O)c1ccc(C(=O)OC)cc1 ?
false
